# TEST: reversal of MRP1-mediated doxorubicin resistance, pilot screen, H69AR cells, doxorubicin co-treatment (AID 601)
# EXPERIMENTAL_CONTEXT: H69AR cells, CellTiter-Glo, 72 h; compound alone cytotoxicity; at 10 µM
REPORTED_METRIC: viability (%)
Quick note: give the figure in %, leave out the unit.

[[record]]
molecule = "O=C(CN1C(=O)COCC1=O)N1CCOCC1"
reported_metric = "viability"
unit = "%"
recorded_result = 96.9

[[record]]
molecule = "Cc1cc(O)c(-c2cc(C(=O)Nc3ccc(S(=O)(=O)N4CCOCC4)cc3)[nH]n2)cc1C"
reported_metric = "viability"
unit = "%"
recorded_result = 37.6

[[record]]
molecule = "O=C(O)C(c1ccccc1)N1CCCC1 (centres undefined)"
reported_metric = "viability"
unit = "%"
recorded_result = 95.9

[[record]]
molecule = "Cc1nn(C)cc1/C=N/O"
reported_metric = "viability"
unit = "%"
recorded_result = 104


Input: Dear colleague, I am looking for the recorded viability of the following molecule: CCOC(=O)Cn1nnc(-c2ccc(SC)cc2)n1
Output: 98

Input: // viability lookup, key: COc1cccc(N2CCN(Cc3nc(N)nc(Nc4ccccc4)n3)CC2)c1
Output: 75.5

Input: Report viability for COC(=O)C1=C(C)NC(C)=C(C(=O)OC)C1c1ccccc1[N+](=O)[O-] please.
Output: 14.3

Input: viability for CCC1CCCCN1C(=O)C1CC(c2cc(Cl)c(OC)cc2OC)=NO1 (centres undefined) ?
Output: 96.6

Input: So what does the record say about viability for CCCc1nc2ccccc2c2nc(N)nn12 ?
Output: 94.1

Input: Give its viability value. Item: Cc1[nH]nc2c1C(CCc1ccccc1)C(C#N)=C(N)O2 (centres undefined)
Output: 90.2

Input: What does the record list as viability for CC1CCN(CCC(=O)Nc2ccc(Br)cc2)CC1 ?
Output: 89.2

====

# TEST: growth suppression of yeast trafficking mutant, preliminary HTS, modulators of trafficking downstream of Golgi apparatus project, 1536-format plate, OD 615 nm (AID 637)
# EXPERIMENTAL_CONTEXT: yeast transport mutant growth, absorbance 615 nm, 18 h; stronger effect = higher value
REPORTED_METRIC: inhibition (%)
Write it as a number; the unit % goes unstated.

Here's what some known entries look like.
[[record]]
molecule = "Cc1cc(C)cc(OCC(=O)NC2=NCCS2)c1"
recorded_result = 1.48

[[record]]
molecule = "CC(C)C1N=C2c3ccccc3N=C(SCC(=O)NCCc3ccc(S(N)(=O)=O)cc3)N2C1=O (stereo unspecified)"
recorded_result = 4.13

[[record]]
molecule = "Cc1cc(N2C(=O)CC(N3CCN(c4ccc(C(=O)c5cccs5)cc4)CC3)C2=O)no1 (stereo unspecified)"
recorded_result = 13.6

[[record]]
molecule = "O=C(CN(CC1CCCO1)S(=O)(=O)c1ccc(S(=O)(=O)NC2CC2)cc1)Nc1ccccc1 (stereo unspecified)"
recorded_result = -9.27

[[record]]
molecule = "COc1cccc(-c2nnc(NC(=O)Cc3cccs3)s2)c1"
recorded_result = 5.16


Now look at this entry.
Input: Looking for the measured inhibition of CCCNC(=O)c1cc(-c2ccco2)on1 , can you help?
Output: 2.73

====

# TEST: SK-BR-3 cell growth inhibitors, pilot screen, 24 h, human (AID 572);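 note: compound exposure lasted between 18 and 24 h rather than exactly 24 h; 100% = carrier-treated control wells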
# EXPERIMENTAL_CONTEXT: SK-BR-3 viability, CellTiter-Glo luminescence, at 10 µM, stronger effect = lower value
Calls of active or inactive are those of the source.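 The calls were made as follows: active = viability at or below 10% of carrier control in both of two separate runs; inconclusive = viability at or below 10% in only one of the two runs; inactive = the rest.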
Reported viability values for a set of compounds

Worked examples, 5 compounds total:
[[record]]
compound = "O=C(Nc1cccc(NC(=O)c2ccco2)c1)c1ccc2c(c1)OCO2"
recorded_result = "106% (inactive)"

[[record]]
compound = "COc1ccc(S(=O)(=O)Nc2ccccc2SC)cc1C"
recorded_result = "94% (inactive)"

[[record]]
compound = "COC(=O)c1ccccc1NC(=O)c1ccc(-c2ccccc2F)o1"
recorded_result = "89% (inactive)"

[[record]]
compound = "Cc1occc1-c1nc(-c2ccncc2)no1"
recorded_result = "79% (inactive)"

[[record]]
compound = "Cc1cc(C)n(CC(=O)O)n1"
recorded_result = "88% (inactive)"


Input: Fill blank: measured viability of the compound CN1CCN(C(=O)C2(NC(=O)Nc3cccc(F)c3)CCCCC2)CC1 is ____.
Output: 81% (inactive)

Input: Requested field: viability. Item: CN(C)S(=O)(=O)c1ccc(S(=O)(=O)N(Cc2ccco2)Cc2ccccc2Cl)cc1
Output: 93% (inactive)

====

# TEST: 384-well plate pilot, post-Golgi transport modulator project, inhibition of yeast transport mutant growth (AID 636)
# EXPERIMENTAL_CONTEXT: absorbance 615 nm, about 18 h, stronger effect = higher value
REPORTED_METRIC: inhibition (%)
A number alone suffices; assume %.

Some compounds with recorded inhibition:
[[record]]
compound = "COC(=O)CSc1nc2sc3c(c2c(=O)n1C1CCCCC1)CCN(C)C3"
unit = "%"
recorded_result = -5.66

[[record]]
compound = "Cc1cc(NC(=O)CSc2nc(CCC3CCCC3)nc3ccccc23)no1"
unit = "%"
recorded_result = -2.86

[[record]]
compound = "Cc1occc1C(=O)Nc1cccnc1"
unit = "%"
recorded_result = -7.73

[[record]]
compound = "CC(Sc1nnnn1C)C(=O)Nc1ccc(Oc2ccccc2)cc1 (centres undefined)"
unit = "%"
recorded_result = -7.53

[[record]]
compound = "O=C(NCCCN1CCOCC1)c1cc(-c2ccc(Cl)cc2)on1"
unit = "%"
recorded_result = -6.8

[[record]]
compound = "Cc1cc(C)c2cc(CN(CC3CCCO3)C(=O)NC3CCCCC3)c(=O)[nH]c2c1 (centres undefined)"
unit = "%"
recorded_result = -0.13


Input: Requested field: inhibition. Item: COCc1nnc(NS(=O)(=O)c2ccc(Br)cc2)s1
Output: -5.2

Input: Tell me the measured inhibition of Cc1cccc(N(C)C(=O)c2cc3cc4ccc(C)cc4nc3o2)c1 , please.
Output: -4

Input: Requested read-out: inhibition. Entry: CC(C)OC(=O)C1C2C=CC3(CN(Cc4cccs4)C(=O)C13)O2 (centres undefined)
Output: -6.44

Input: Look up inhibition: CCOC(=O)c1sc2nc3c(cc2c1N)COC(C)(C)C3
Output: -6.4

Input: What value of measured inhibition is listed for O=C(COc1ccccc1Cl)OCC(=O)N1CCN(S(=O)(=O)c2ccccc2)CC1 ?
Output: -6.13

Input: Could you share which inhibition value was measured for CC(C)(C)c1cc(NS(=O)(=O)c2ccc3c(c2)OCCO3)on1 ?
Output: -1.3

Input: Query: inhibition; subject: CCOc1ccccc1N1CCN(c2nc3ccccc3nc2C(C#N)C(=O)OC)CC1 (centres undefined)
Output: 1.45

Input: Item under review: c1ccc2c(-c3nc(-c4ccncc4)no3)cccc2c1 . Reported inhibition?
Output: -5.89

Input: What does the record list as inhibition for COc1ccc(C)cc1-n1c(N)c(C#N)c(C#N)c1-c1ccc(OC)c(OC)c1OC ?
Output: -3.51

Input: Please report the recorded inhibition for c1ccc(OCc2nc(-c3ccccc3)no2)cc1 .
Output: 0.14

Input: Any idea what inhibition was measured for O=c1oc(-c2ccco2)nc2ccccc12 ?
Output: -0.78

Input: Requested read-out: inhibition. Entry: c1ccc2c(NC3CCCC3)nnc(NC3CCCC3)c2c1
Output: -0.92

Input: Quick check: inhibition of COc1ccccc1C(=O)NCCNC(=O)c1ccco1 ?
Output: -4.53

Input: GET /values?readout=inhibition&item= CCOC(=O)c1c(C)oc2c1c(C(c1ccncc1)N1CCOCC1)c(O)c1ccccc12 (centres undefined)
Output: -0.13

Input: Please look up its inhibition: C=CCN=C1SCC(=O)N1S(=O)(=O)c1ccc(C)cc1
Output: -4.73

Input: Would you mind telling me what inhibition value was observed for O=C(CSc1nnc(-c2ccco2)n1CC1CCCO1)NC1CCCC1 (centres undefined) ?
Output: -2

Input: What value of inhibition has been recorded for this entry: O=[N+]([O-])c1cccc2cn[nH]c12
Output: -0.91

Input: Reported inhibition for NS(=O)(=O)c1cc2c(cc1C(F)(F)F)NCNS2(=O)=O : what is it?
Output: 1.17

====

# TARGET_UNDER_TEST: Receptor tyrosine-protein kinase erbB-2 (Homo sapiens)
# TEST: reducers of endogenous Her2 protein level, primary screen, SKBR3 breast tumor cells, AlphaScreen, ATP viability (AID 461);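 note: lower value means less Her2 protein in the cells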
# EXPERIMENTAL_CONTEXT: 18-24 h, at 10 µM, stronger effect = lower value
REPORTED_METRIC: Her2 level (%)
A number alone suffices; assume %.

[[record]]
compound = "Cc1ccc(C)c(N2CCN(Cc3nnnn3C3CCCCC3)CC2)c1"
unit = "%"
recorded_result = 91

[[record]]
compound = "CCCc1cc(Nc2cccc(OC)c2)n2ncnc2n1"
unit = "%"
recorded_result = 129

[[record]]
compound = "CN(C)CC(O)COc1ccc(-c2ccc(C#N)cc2)cc1 (centres undefined)"
unit = "%"
recorded_result = 109


Input: Her2 level for COCCn1c(=O)[nH]c2cc(C(=O)N3CCN(Cc4ccc5c(c4)OCO5)CC3)ccc2c1=O ?
Output: 106

Input: Quick one: Her2 level for CC(C)(C)OC(=O)N1CC=C2C(C#N)=C(N)C(C#N)(C#N)[C@H](c3cccnc3)[C@H]2C1 ?
Output: 100

Input: Quick one: Her2 level of CCN1CCN(Cc2nc3c(c(=O)[nH]c(=O)n3C)n2Cc2ccccc2Cl)CC1 ?
Output: 114

Input: Give the measured Her2 level of COc1ccc(C(=O)N2CCN(C3CCCCC3)CC2)c(OC)c1 .
Output: 104

Input: Query (compound): Nc1nonc1-c1noc(-c2ccccc2Br)n1 ; field requested: Her2 level
Output: 76.5

Input: Item CN(C1CCCCC1)S(=O)(=O)c1ccc(S(=O)(=O)N2CCCC2)cc1 has what recorded Her2 level?
Output: 92
